Where do these numbers come from? They come from patent US6238689A.

- test-protocol: Pharmacokinetics of nicotine after IV, oral and enema administration (Example 4)
- experimental-context: human, plasma, iv, […]
- Protocol: Intravenous nicotine was prepared using a nicotine base, supplied as the tartrate salt (Fisher Scientific/Eastman Kodak Company, Rochester, N.Y.). […] The solution was then cultured for organisms, assayed for endotoxin, and chemically analyzed prior to infusion to assure stable nicotine concentration. […] For this study, the maximum plasma nicotine concentration (Cmax) and the time to reach Cmax (Tmax) were defined as the highest measured plasma concentrations and the time of the sample, respectively. […]

compound	Tmax
CN1CCCC1c1cccnc1 (stereo not shown)	18 min
